// note: pIC50 values for Prostaglandin G/H synthase 2 (Homo sapiens) were reported in different studies
Target: Prostaglandin G/H synthase 2 (Homo sapiens)
Sequence (P35354 whole entry): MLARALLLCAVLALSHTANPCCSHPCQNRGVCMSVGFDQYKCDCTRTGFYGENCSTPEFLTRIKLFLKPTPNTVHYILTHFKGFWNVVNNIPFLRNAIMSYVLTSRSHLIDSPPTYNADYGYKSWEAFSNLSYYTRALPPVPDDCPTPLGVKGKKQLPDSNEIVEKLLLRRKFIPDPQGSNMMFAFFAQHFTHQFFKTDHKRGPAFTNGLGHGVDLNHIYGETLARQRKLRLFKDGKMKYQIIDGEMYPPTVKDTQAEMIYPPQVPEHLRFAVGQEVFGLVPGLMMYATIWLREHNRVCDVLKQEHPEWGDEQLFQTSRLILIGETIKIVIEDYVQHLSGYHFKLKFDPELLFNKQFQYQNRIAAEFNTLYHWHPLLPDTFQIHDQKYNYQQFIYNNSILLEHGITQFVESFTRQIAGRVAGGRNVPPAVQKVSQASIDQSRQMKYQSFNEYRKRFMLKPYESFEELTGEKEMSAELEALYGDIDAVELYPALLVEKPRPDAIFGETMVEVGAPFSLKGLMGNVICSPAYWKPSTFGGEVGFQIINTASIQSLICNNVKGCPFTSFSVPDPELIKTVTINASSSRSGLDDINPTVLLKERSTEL
pIC50: −log10 of the molar value.
metric_name: pIC50

compound_string: Cc1nc(C2CCCC2)c(-c2ccc(S(C)(=O)=O)cc2)o1
metric_name: pIC50
result_qualifier: =
meas_value: 4.74

compound_string: CC/C(=C\c1cc(O)cc(O)c1)c1ccc(N(C)C)cc1
metric_name: pIC50
result_qualifier: =
meas_value: 4.83

compound_string: COc1ccc(-c2noc(CC(=O)NCc3ccc(CNC(=O)Cc4onc(-c5ccc(OC)cc5)c4-c4ccc(OC)cc4)cc3)c2-c2ccc(OC)cc2)cc1
metric_name: pIC50
result_qualifier: <
meas_value: 4.30

compound_string: O=C(NCCc1c[nH]c2ccccc12)c1ccccc1Nc1ccccc1F
metric_name: pIC50
result_qualifier: =
meas_value: 5.37

compound_string: CS(=O)(=O)c1ccc(-c2c(-c3ccc(F)cc3)noc2C(F)(F)F)cc1
metric_name: pIC50
result_qualifier: =
meas_value: 5.09
